Origin of values: the DeepSol protein solubility set

MEASUREMENT NOTES: soluble on expression in E. coli; label from the status in PepcDB or PDB records
ATTRIBUTE MEASURED: soluble on expression in E. coli

Examples with their reported soluble on expression in E. coli follow.
PRIMARY SEQUENCE: MGSDKIHHHHHHMFHTIDFSDIFSSDYSNKISFKKGEIIHSYRDYEEKTPQIGAILEGTAVLEGPTNEGRWMINALIGQHSLFGMESLLETKTAPELTEYRVRALENGTVLFIDREFLLNYLYANPQFFHLILDEVIVRYLFTSKNYKNINQAPIVKVTRILVEIIELLHLHQTEGAIELPVYVTQTFLADYCRSSRARVTEVLEELRESGLLLSKKPITISSHENLLNQIDSFQTGNGLLTR
RESULT: not soluble
//
PRIMARY SEQUENCE: MKYRVETNPFSKDRYNPEQLEMFKNRQLSKDKAEVFFTRLYNQHIAWVIIANVMTEYVIKFRKSATSFEEAWDALDYQRTTEIVFRAVNGLPCSEKDSGELETYLSEEQHEKH
RESULT: not soluble
//
PRIMARY SEQUENCE: MTFALGQRWISDTESDLGLGTVVAMDARTVTLMFAASEENRVYARNDAPVTRVTFNVGDVIDCQEGWSLKVEEVLEDEGLYTYFGTREDTQETAVVLREIFLSNQIRFNKPQDKLYAGQIDRMDNFVLRY
RESULT: not soluble
//
PRIMARY SEQUENCE: MYKAVVFDFDGTVIDTEKHLFDLINTHLKIHQVAPISLEFYKQFIGGEATELHTYLEDAIGFKNKEKIYDQYYQTSVELPVNSTIIQLMQYLKKRHIPMAITTSSYKKNIYPIFKQLGLDTYIDVVVGRENVDSVQPNPEIYLKAVQELNYNPTTCLAIEDSVNGATAAMLAGLDVVVNTNIITKDQDFSTVQCVGQDMEFEDIKNSLFKE
RESULT: not soluble
//
PRIMARY SEQUENCE: SEVERKIVSLEALYIVYDADGTVAGELLYLLRKWLGKGHCAACDITHGPRKVKPEWTILQKTGWLGVPLFNIHRDEMEPKLRSAVSCALPCVAALVDNGDYVLLLQPEDLESCKGQVSKLQEKIVEALKDFGFQVNESFTSVVTSDLSDTCPSTLDREKEEDDAVVPF
RESULT: soluble

Entry MHRGITVQTSDLDDGVTGVVGKVYIEASPKHVWAAITDYNNHKSFVPKLIDSGLISDNGREQVMFERGKTGIFLFRKTVYIKLSLQGEYPKRLDFHQIEGDFKVYEGDWLIERASDGKGSILTFRAKIKPDFFAPAMFVRKVQQNDLPMVLAAMKKRAESAEGSLEHHHHHH ; soluble on expression in E. coli = not soluble

Entry GPGSMQERESLLKEYKGLLANLEEAFDLKRSNEADQEVDDLIDETKAELRTVVASLNASEVIEVTKDVTKVVDADGNTVILYSKVAPYEVHFDNAMWYSCVITDVVQPETALERVRYKAWILGYNVEEETYSEQLRVWQPQAAEGETTLRSGVACHAVNPRSGRFESAKVVRLTLSDTVILTFSDVVEMTKEVGETDGAGAAGELATGKRDPSGGDTSAVTEEVPLSHVRVGRFYQQLRKRSTLTSEERARRRAQNVERKRVRRETKRQQDANVASQNANDWQRLVEDMGLATGCAKKRR ; soluble on expression in E. coli = soluble
